The measured values listed here are drawn from patent US20240002497A1.

Target: T1, huNav1.7α on HEK cells (without β subunits) (human, UniProt Q15858 1-1988)
T1 construct: also called HEKa huNav1.7α
Assay: binding FACS, HEK cells (HEKa)
EC50 for assorted binders
Entry rule: numbers only, all in nM.

INSERT INTO assay_data (binder, property_name, reported_value) VALUES
  ('F010301655 (VHH, also called F0103275B05(L11V, S33R, R39Q, S50Y, S56D, R76N, T83R, V89L, N93R)) VHH: EVQLVESGGGVVQPGGSLRLSCAASGSIFNINRMAWYRQAPGKQRELVAYSTNGGDTNYADSVKGRFTISRDNAKNVYLQMNSLRPEDTALYYCRALLQPSIYDISRTYWGQGTLVTVSS', 'EC50', 19);

Ask | // query EC50 value for entry F010301641 (VHH, also called F0103275B05(R76_V78insT)(L11V, R76N, T83R, V89L)) VHH: EVQLVESGGGVVQPGGSLRLSCAASGSIFNINSMAWYRRAPGKQRELVASSTNGGSTNYADSVKGRFTISRDNAKNTVYLQMNSLRPEDTALYYCNALLQPSIYDISRTYWGQGTLVTVSS
Reply | 380
